tgt: UniProt:Q9UBN7
Sequence (whole entry): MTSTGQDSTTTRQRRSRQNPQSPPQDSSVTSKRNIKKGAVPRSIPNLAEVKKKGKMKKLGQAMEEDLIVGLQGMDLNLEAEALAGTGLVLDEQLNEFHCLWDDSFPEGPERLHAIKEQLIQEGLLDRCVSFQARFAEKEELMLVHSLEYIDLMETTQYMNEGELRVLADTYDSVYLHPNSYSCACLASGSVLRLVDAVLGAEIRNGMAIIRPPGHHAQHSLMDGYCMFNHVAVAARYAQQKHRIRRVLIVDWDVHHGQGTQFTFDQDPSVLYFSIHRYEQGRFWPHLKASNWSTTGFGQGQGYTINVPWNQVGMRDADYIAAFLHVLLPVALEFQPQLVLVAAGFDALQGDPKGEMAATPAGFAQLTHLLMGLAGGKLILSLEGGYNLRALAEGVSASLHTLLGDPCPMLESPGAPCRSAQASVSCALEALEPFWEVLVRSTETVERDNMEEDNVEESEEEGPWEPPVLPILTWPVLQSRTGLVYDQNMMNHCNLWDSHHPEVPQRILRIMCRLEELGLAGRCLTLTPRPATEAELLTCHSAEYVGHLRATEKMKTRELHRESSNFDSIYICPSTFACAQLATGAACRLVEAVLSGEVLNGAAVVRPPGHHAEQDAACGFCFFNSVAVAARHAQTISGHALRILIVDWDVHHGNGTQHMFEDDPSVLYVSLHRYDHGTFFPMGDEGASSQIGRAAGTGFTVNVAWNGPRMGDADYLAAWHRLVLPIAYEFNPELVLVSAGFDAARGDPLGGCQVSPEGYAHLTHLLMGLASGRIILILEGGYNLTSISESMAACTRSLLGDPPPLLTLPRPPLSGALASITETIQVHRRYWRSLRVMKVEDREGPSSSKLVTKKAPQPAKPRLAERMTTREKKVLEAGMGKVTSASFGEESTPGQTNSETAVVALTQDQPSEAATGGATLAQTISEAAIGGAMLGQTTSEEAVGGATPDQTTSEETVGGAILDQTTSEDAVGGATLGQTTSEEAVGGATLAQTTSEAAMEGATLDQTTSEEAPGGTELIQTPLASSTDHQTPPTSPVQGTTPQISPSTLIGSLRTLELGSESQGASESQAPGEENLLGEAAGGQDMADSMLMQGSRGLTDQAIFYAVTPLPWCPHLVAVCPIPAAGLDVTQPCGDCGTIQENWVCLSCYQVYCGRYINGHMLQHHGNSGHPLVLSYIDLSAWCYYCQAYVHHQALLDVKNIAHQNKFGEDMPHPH
protocol: Inhibition of recombinant human HDAC6 at 1 uM using Z-(Ac)Lys-AMC as substrate after 90 mins by fluorescence based micro plate assay
measured attribute: inhibition (%)
One number for each entry, in %.

The molecule listed as COc1ccc(C(=O)NO)cc1NCc1ccc(OCCCCC(=O)Nc2ccc3c(c2)cc(C)c(=O)n3C)cc1 has a reported inhibition of 50

Looking up COc1ccc(C(=O)NO)cc1S(=O)(=O)Nc1ccc2c(c1)cc(C)c(=O)n2C , I found its inhibition recorded as 21

// inhibition lookup, molecule = Cc1cc2cc(NS(=O)(=O)Cc3cccc(C(=O)NO)c3)ccc2n(C)c1=O , result: 3

# inhibition of COc1ccc(C(=O)NO)cc1CNc1ccc2c(c1)cc(C)c(=O)n2C = 40

Given item COc1cc(C(=O)NO)ccc1CS(=O)(=O)Nc1ccc2c(c1)cc(C)c(=O)n2C , the value recorded as its inhibition is 15

Items follow; give inhibition for each.
1. COc1ccc(C(=O)NO)cc1CS(=O)(=O)Nc1ccc2c(c1)cc(C)c(=O)n2C
2. Cc1cc2cc(NS(=O)(=O)c3cc(C(=O)NO)ccc3Cl)ccc2n(C)c1=O
3. Cc1cc2cc(NCc3cc(C(=O)NO)ccc3Cl)ccc2n(C)c1=O

1. 14
2. 13
3. 28

The reported numbers originate from ChEMBL document CHEMBL4765345.
